Each entry below lists one item and its recorded Natural compound concentration range with no toxicity to HFF cells value.
# Tested on: HFF cells
# assay: Cytotoxicity assay (CCK-8)
# Format: cell-based, Human
# conditionSet: CCK-8, 24 h, DMEM with 1% FBS
valueKind: Natural compound concentration range with no toxicity to HFF cells

# testSmiles, observedMeasurement
measured = [
    ("C=CCc1cc(OC)c2c(c1)OCO2", "0.01 to 40 µg/mL"),
    ("COc1cc(O)ccc1/C=C/C(=O)c1ccc(O)cc1", "0.01 to 4 µg/mL"),
    ("O=c1c(-c2ccc(O)cc2)coc2cc(O)cc(O)c12", "0.01 to 40 µg/mL"),
    ("O=C(O)[C@@H](O)c1ccccc1", "0.01 to 80 µg/mL"),
    ("O=C(O)[C@H](O)c1ccccc1", "0.01 to 80 µg/mL"),
    ("CC1(C)CC[C@]2(C(=O)O)CC[C@]3(C)C(=CC[C@@H]4[C@@]5(C)C[C@@H](O)[C@H](O)C(C)(C)[C@@H]5CC[C@]43C)[C@@H]2C1", "0.01 to 4 µg/mL"),
    ("CCCCCCCCCCCCCC(=O)O", "0.01 to 20 µg/mL"),
    ("COc1cc2c(=O)c(-c3ccc(O)cc3)coc2cc1O", "0.01 to 40 µg/mL"),
    ("O=c1c(-c2ccc(O)cc2)coc2cc(O[C@@H]3O[C@H](CO)[C@@H](O)[C@H](O)[C@H]3O)cc(O)c12", "0.01 to 32 µg/mL"),
]

Cited source: paper PMC8226262
